From: the supplement of paper PMC9170038

Consider the following sequences; for each one, report its apparent KD of K4 kissing-loop reporter.
# Tested on: K4 kissing-loop RNA reporter;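 note: bound reporter read as fluorescence of individual clusters on recovered sequencing chips by microscopy, with normalized cluster intensities fitted with a binding model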
# test_name: apparent KD of K4 kissing-loop reporter; higher = weaker reporter binding
# recorded_conditions: Eterna round: R107; input ligand: theophylline 20 uM
Hi, when you answer, please include the unit after the number. Thanks!

Lab note: each sequence below needs its apparent KD of K4 kissing-loop reporter filled in.
1. GUCCAUGUCCUCAUUCGUGCACUGGACACCAAGGAUAUGUUUAUGGACAGAAGGUGGUUGGGUCAGUGAUGUUGAUAUAAUUAGU [theeternabot_exclusion_KL_FMN_A_24]
2. AGACCACAAAGUGGUCAGUGUUCGCUGCGGCGAGGACCGGUACGGCCGCCACUCGCGAGUGAUGUUCGCGAGCGCAGCGAACACA [Omei KL Tryp A Exc A v3]
3. UAGUGGUAGACCAGAUCUACCACUAGGGAUACCAGCCUCGGUCGAGGCCCUUGGCAGCCCAGCGGGUCCAGUGAUGUUGGAUGUC [Raanza]
4. AUGCGCGCGGCGGCCGCCACUCGCAUGAGAGUGAUGUUCUCGCCGGGCCCGCAAGGGCCCGGUGUGAGGACCGGGCCGGGCUGCG [#2 Same State - Tryptophan B Attempt #18 (HarryS)]
5. CCAGCGGGCACGGCCGCCACUCUCUCGAGUGAUGUUUGCGGAGUCAGGCCGGCUCAGUACGUCACGAGGACCGGGUGCAAUUUAC [theeternabot_exclusion_KL_Trp_B_40]
6. GUCAUGCGUUCAGGAUAUGGACCAAUUUAUAUUGCUUAUGCUGUGCCCUGUAUGGCAGUGAUGUUGCCAGAAGGGAGGGCAUGCA [Erbionvean]
7. UUAUUAUAUUGUAAUGAUAUAGAAACCGAAGGAGCGACAUAAAAGUCAGGUAGGUCGCGGUGUACUCAGUGAUGUUGAGAGUAUU [JR_SSArginiA_Sub013]

1. 0.406 µM
2. 0.065 µM
3. 0.194 µM
4. 0.193 µM
5. 0.506 µM
6. 0.111 µM
7. 0.271 µM

I would be grateful if you could provide apparent KD of K4 kissing-loop reporter for each of the following entries.
1. AUCAUUAGUUCGGCCGCCACUCCAGUGAUGUUGGAGGGACGCAUAAUAUGCGCGCGGCUAACUAGGAGGACCGGGAACUUUAGGC [Maonce]
2. CUGGGUUGACGAAAAGUCAACAAAUGAGAAGGAGCGCACGAAAGUGCAGGUAGGUCGCUCAAUCCAGUGAUGUUGGAUCAUCCAG [#SwitchBubble 12 #K4Late]
3. UAACUCUUGCAGUGAUGUUGCAAGUAAGCUCAGGAUAUCAGGAAACUGAGAAGGGAGCAUCCUGAGCUUCUGCAAGAGCUCAGAA [KL-SSFMN-A4]
4. UGAUCUCAGUGAUGUUGAGAUCAAACUGAUACCAGUCAAUUUAGUGACCCUUGGCAGCAGUAUACCAAGGGAUCUUAUGAGAUCA [Theo A SS t5]
5. UAACCGCAGAAAGAUACCAGUGAGUGAUGUUCCUCGAUCCUGUGGUUCAUUCUCUUUACCCACCCUUGGCAGCUUCAAAUGUGAC [theeternabot_exclusion_KL_Theo_B_4]

1. 0.0869 µM
2. 0.638 µM
3. 0.217 µM
4. 0.162 µM
5. 0.573 µM

====

# Test system: MS2 coat protein
# test_name: apparent KD of MS2 coat protein; designed switch direction (-1 OFF switch, 1 ON switch): 1; higher = weaker reporter binding
# recorded_conditions: Eterna round: R98; input ligand: FMN 200 uM
measured_endpoint: apparent KD of MS2 coat protein (nM)
Answers are plain numbers, in nM.

Reference set (4 entries):
CACGUCCACACAGGAUAUGCUGGACUUUGUCCAGCAGAAGGGUGACAACAUGAGGAUCACCCAUGUAGGACGUGUAUAUUUAAG [Mat - Same State NG 1 - Eli mod - D100] = 188
CGUGUGGCAUGAGGAUAUGGUCAGCUUUGCUGACCAGAAGGCAUGUCAAUAGACAUGAGGAUCACCCAUGUAGUUAACACACGA [Mat - Same State NG 1 - JL Mod - D23] = 44
UCACUCACGUUAGGAUAUGGAUCGGAAAACGAUCCAGAAGGAACCUGCAAACCUGAGGAUCACCCAGGUUCCAAUAACGAGUGA [SameSame 7 - Jieux - Same State NG 1] = 259
UUACGUCCCGUUUACAUGAGGAUCACCCAUGUCGAAAGAACCGAGGAUAUGCUACCUAGUUGGUAGCAGAAGGCGGAAACGUCG [salish99_SSNG3_r02_008] = 42.3

Now look at this entry.
Query for MS2 coat protein: what apparent KD of MS2 coat protein does the record show for AAAACAUGAGGAUCACCCAUGUAAAGAACGGUUAAUAAAAGUGAGGAUAUACAAAAUUUUAUAUAGUAGAAGGCACUGGGUACA [JR_SSNG3_Sub008] ? 23.9

====

# Test system: MS2 coat protein
# test_name: apparent KD of MS2 coat protein; higher = weaker reporter binding
# recorded_conditions: Eterna round: R107; input ligand: none
Task for the reader: assign each of the following sequences its reported apparent KD of MS2 coat protein.
Give bare numbers, in nM.

Worked examples follow.
UUGGUUAUGCGAAGGAGCGGGAAAUAUAUAUAUAUAAUCCUAACAUGAGGAUCACCCAUGUCCCAGGUAGGUCGCGCAUAGUUGG [12.I] = 69.5
GGAAACCAAAGCGAUACCAGCGUACAUGAAAAGAGCGAAAACAUGAGGAUCACCCAUGUACGCCCUUGGCAGCGCAAAACCAAGG = 44.3

The record that follows has no apparent KD of MS2 coat protein shown yet.
So what's the measured apparent KD of MS2 coat protein for this one? AAAUGAAGGCGAAGGAGCGCGAACAUGAGGAUCACCCAUGUGUAUGUAUGUAGUCAUGUAUCGCAGGUAGGUCGCGCUGUUACAU [Exclusion Arginine B] 278

====

# System: MS2 coat protein
# test_name: apparent KD of MS2 coat protein; designed switch direction (-1 OFF switch, 1 ON switch): -1; higher = weaker reporter binding
# recorded_conditions: input ligand: none
measured_endpoint: apparent KD of MS2 coat protein (nM)
Give bare numbers, in nM.

Please review the entries below; each comes with its answer.
UUGAAGUCGUCAGGAUAUAGUUUUAAUGUCAUGCGUAUGUUCUUACAUGAGGAUCACCCAUGUCGCUAGAAGGGACUAAAGAUU [JR_ExcNG2_Sub010] (Eterna round: R96, puzzle: Exclusion NG 2) = 44.4
AGAUCCACCGAGGAUAUUGGAGUGAUAUCACUCUAAGAAGGCGGUACAUGAGGAUCACCCAUGUGAUACCCAGA [Eternabot (Original) Solution 15] (Eterna round: R97, puzzle: Exclusion 6) = 316
AGCAUGUUAGGAUAUGCCAAAAUUAACCACGACUCAGUGAUGCAGAAGGAACAUGAGGAUCACCCAUGUGCUCC [Eternabot (L1) Solution 16] (Eterna round: R97, puzzle: Exclusion 4) = 38.2
CUACCCUCAGGAUAUUUUGCACUGUACAUGAGGAUCACCCAUGUGACGUCUGUUAAUCAAAGAGAAGGGAGAGGUG [Eternabot (L1) Solution 27] (Eterna round: R97, puzzle: Exclusion 5) = 25.1
ACAAGAUCGGAAGGAUAUUGUACAUGAGGAUCACCCAUGUAAUAAAUGAGGAUCACGGAUGUAGUCAAGAAGGUCCGGAUAAGA [Ostracism 3 - Jieux - Exclusion NG 2] (Eterna round: R96, puzzle: Exclusion NG 2) = 43.8

Each sequence below has a reported value. Please supply its apparent KD of MS2 coat protein.
1. UUUAGUUCAGGAUAUGUAGAUUUUAACAUGAGGAUCACCCAUGUAGAUCCUGAUCCUGCUACAGAAGGGAAAAUUU [Mat - Exclusion 5 - Eli Mod - D9] (Eterna round: R97, puzzle: Exclusion 5)
2. UACCUGAGGCAAAGCUUUAGGUAAACAUGAGGAUCACCCAUGUAGGAUAUGGUAGGCAAAGCUUACCAGAAGGACAUGUUAAUU [Mat - Exclusion NG 3 - Mod of JL - D34] (Eterna round: R96, puzzle: Exclusion NG 3)
3. ACAUGAGGAUCACCCAUGUAAUCAUAAUGGCUGAUGUAGAGUCAGGAUAUGUGUGGCUUACUAUCGCAGAAGGGACAAGACUGG [Deportation 33 - Jieux - Exclusion NG 3] (Eterna round: R96, puzzle: Exclusion NG 3)
4. UAGUACAGAGGAUAUACAUGAGGAUCACCCAUGUGUUUCAGCUAGGAGACUAGCGAAAGUAGAAGGCUGUACUG [salish99_ex3_r4_010] (Eterna round: R97, puzzle: Exclusion 3)

[25.6, 83, 25.9, 11.4]

====

Exercise: state measured apparent KD of MS2 coat protein for each of the sequences provided.
# System: MS2 coat protein
# test_name: apparent KD of MS2 coat protein; designed switch direction (-1 OFF switch, 1 ON switch): 1; higher = weaker reporter binding
# recorded_conditions: input ligand: microRNA oligo, concentration not stated
Numbers only, in nM.

Observe how each entry below is paired with its result.
UUUAGCGUUACAGGAUAUGGUGAGGAUCACCCACUAGAAGGGUAAACAUGUGCGUCGGACAUGAGGAUCACCCAUGUAGGGCGU (Eterna round: R96, puzzle: Same State NG 1) = 22.2
GCGAUAUGAUGCUACAUGAGGAUCACCCAUGUAGCGACAGCUAAGGAUAUUGGAAAGGGAGGAGACGAGAAGGUAGGGUCACGC [AK SSNG3-V2-24.1] (Eterna round: R96, puzzle: Same State NG 3) = 11.6
GUGGCUGCCACAGGAUAUACCGUGUAAUUCACGGUAGAAGGGUGAAGCACUCAAAAGAGUGCUAACAUGAGGAUCACCCAUGUG [Quzaon] (Eterna round: R96, puzzle: Same State NG 1) = 170

Look at each sequence and report its apparent KD of MS2 coat protein.
1. AGCUUUUAAUUAGGAUAUGGUCACAUGAGGAUCACCCAUGUAACGAUGAUAUAAUGUGGUCAAGACUAGAAGGGAUUGCUAACA [SameState NG2 #68] (Eterna round: R96, puzzle: Same State NG 2)
2. AUUAUUUAUGCAGGAUAUGAUUAACAUGAGGAUCACCCAUGUGGUGUUGUGAGUAAGGAGAGUGAUCAGAAGGGCAUUUUUUUG [JMF's solution 57] (Eterna round: R96, puzzle: Same State NG 2)
3. UGUUGUAUUACAGGAUAUCUAAUAUUUUUAUUUAGAGAAGGGUAUUCACAUGAGGAUCACCCAUGUAUAUACGAGGAAGUUGUG [JMF's solution 8] (Eterna round: R96, puzzle: Same State NG 1)
4. UGUUAUUUGACAGGAUAUUGAUUGUUAAGUUUUUACAUGAGGAUCACCCAUGUUGUUCAUUCGUACAAGAAGGGUCAAGUUUUU [JR_SSNG2_Sub020] (Eterna round: R96, puzzle: Same State NG 2)
5. GAGUAGUUGAAAGGAUAUUGAUUGUUAUAGGAUCAAGAAGGUUCUAACAUGAGGAUCACCCAUGUAGGACUAUUCCUGUGUAUC [Parity 83 - Jieux - Same State NG 1] (Eterna round: R96, puzzle: Same State NG 1)
6. AGAGGAGGAGCAGGAUAUUCGAAGAAGGACGUGGAAGAAGGGUUCAUGCGAUGACAUGAGGAUCACCCAUGUACCGCGCGAGGA [AK SSNG1-V2-12] (Eterna round: R96, puzzle: Same State NG 1)

1. 357
2. 451
3. 24.6
4. 52.6
5. 8.78
6. 42.6
